Test system: CACO-2 cells
Assay: Assay C: Permeability in CACO-2 cells
Type: in vitro ADME
Conditions: pair comparison without/with 4-fluoropiperidyl
Procedure: Caco-2 cells (1-2×10^5 cells/1 cm^2 area) are seeded on filter inserts (Costar transwell polycarbonate or PET filters, 0.4 μm pore size) and cultured (DMEM) for 10 to 25 days. Compounds are dissolved in appropriate solvent (like DMSO, 1-20 mM stock solutions). […] The transport solution (TL) is applied to the apical or basolateral donor side for measuring A-B or B-A permeability (3 filter replicates), respectively. […]
Assignment: determine reported CACO2 Perm. for the given compounds.

-- ask Give the measured CACO2 Perm. of Cn1cnnc1C1(F)CCN(c2c(C#N)cc(C(F)(F)F)nc2-c2cnc3nn(C(C)(C)C)c(C(F)(F)F)c3c2)CC1 [Example 4 in EP 23189886.7] .
-- reply 99.5 10^−6 cm/sec

-- ask Also, Cn1cnnc1C1CCN(c2c(C#N)cccc2-c2ccc(F)nc2)CC1 [(1)/QP5020, reference compound] please.
-- reply 28.0 10^−6 cm/sec

-- ask Also, Cn1cnnc1C1(F)CCN(c2c(C#N)cccc2-c2ccnnc2)CC1 [Example 52 in EP 22216126.7] please.
-- reply 15.0 10^−6 cm/sec

-- ask Also, Cn1cnnc1C1(F)CCN(c2c(-c3ccc(F)nc3)ccnc2C#N)CC1 [Example 10 in EP 22188580.9] please.
-- reply 11.0 10^−6 cm/sec

-- ask Also, Cn1cnnc1C1CCN(c2c(-c3cnc4nn(C(C)(C)C)cc4c3)ccc(C(F)(F)F)c2C#N)CC1 [Example 32 in EP 23161417.3] please.
-- reply 0.2 10^−6 cm/sec

-- ask Also, Cn1cnnc1C1(F)CCN(c2c(C#N)cc(Cl)nc2-c2ccc(F)nc2)CC1 [Example 18 in EP 23161417.3] please.
-- reply 66.0 10^−6 cm/sec

-- ask Also, Cn1cnnc1C1(F)CCN(c2c(C#N)cc(F)cc2-c2ccc(F)nc2)CC1 [Example 6 in EP 23161417.3] please.
-- reply 44.0 10^−6 cm/sec

---

Tested on: CACO-2 cells
Assay: Assay C: Permeability in CACO-2 cells
Type: in vitro ADME
Settings: pair comparison without/with 4-fluoropiperidyl
Assignment: determine reported CACO2 Perm. for the given compounds.

-- ask Give the measured CACO2 Perm. of Cn1cnnc1C1(F)CCN(c2c(C#N)cc(Cl)cc2-c2cnc3nn(C(C)(C)C)cc3c2)CC1 .
-- reply 18.0 10^−6 cm/sec

-- ask Also, Cn1cnnc1C1CCN(c2c(C#N)cc(C(F)(F)F)nc2-c2cnc3nn(C(C)(C)C)c(Cl)c3c2)CC1 please.
-- reply 1.0 10^−6 cm/sec

-- ask Also, Cn1cnnc1C1(F)CCN(c2c(C#N)cc(C(F)(F)F)nc2-c2cnc3nn(C(C)(C)C)c(Cl)c3c2)CC1 please.
-- reply 47.0 10^−6 cm/sec

-- ask Also, Cn1cnnc1C1CCN(c2c(C#N)cccc2-c2cnc3nn(C(C)(C)C)cc3c2)CC1 please.
-- reply 0.5 10^−6 cm/sec

-- ask Also, Cn1cnnc1C1CCN(c2c(C#N)cc(Cl)nc2-c2ccc(F)nc2)CC1 please.
-- reply 23.0 10^−6 cm/sec

-- ask Also, Cn1cnnc1C1CCN(c2c(C#N)cc(C(F)(F)F)cc2-c2ccc(F)nc2)CC1 please.
-- reply 9.0 10^−6 cm/sec

-- ask Also, Cn1cnnc1C1(F)CCN(c2c(C#N)cc(C(F)(F)F)cc2-c2ccc(F)nc2)CC1 please.
-- reply 40.5 10^−6 cm/sec
